Data origin, for the record: patent US20020094992A1

# procedureText: Solubility and osmotic pressure of the active compound
# Assay type: physicochemical
# measurementContext: water
readoutName: solubility

Req: Please give the measured solubility for this compound: CN1N=C2CCN(C(=O)[C@@H](COCc3ccccc3)NC(=O)C(C)(C)N)C[C@@]2(Cc2ccccc2)C1=O.O=C(O)C(O)C(O)C(=O)O
Resp: > 150 mg/mL
